// provenance: patent US20230233541A1

Target: human TREX2 (residues M44-A279) (Homo sapiens, UniProt Q9BQ50)
Construct: human TREX2 (residues M44-A279, expressed in E. coli); His-Tev (His tag with TEV protease site) (N)
Sequence (Q9BQ50 whole entry, the tested form may be a part): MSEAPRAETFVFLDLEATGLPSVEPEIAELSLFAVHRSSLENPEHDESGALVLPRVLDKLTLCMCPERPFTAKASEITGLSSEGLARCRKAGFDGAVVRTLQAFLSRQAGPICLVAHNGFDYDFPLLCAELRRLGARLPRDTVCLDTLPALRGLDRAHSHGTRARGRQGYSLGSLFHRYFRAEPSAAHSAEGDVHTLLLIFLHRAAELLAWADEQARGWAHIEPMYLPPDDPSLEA
Assay: TREX2 Biochemical Assay (fluorescence assay, degradation of dsDNA substrate)
Conditions: 2.5 nM TREX2, 60 nM dsDNA substrate, 25 minutes at room temperature; read-out: hTREX2 EC50
pEC50: −log10 of the molar value.
MEASUREMENT KIND: pEC50

> print(dat)
                                   compound        result
1  O=C(c1cc(F)c(F)cc1F)N(Cc1cccnc1)Cc1ccc(Cl)cc1Cl [Compound 120]        < 4.00
2  CC[C@@H](c1ccc2c(c1Cl)OCO2)N(Cc1ccc(C(=O)O)nc1)C(=O)c1cc(F)cc(F)c1 [Compound 230]  5.00 to 6.00
3  COc1cc(C(=O)N(Cc2cccnc2)Cc2ccc(Cl)cc2Cl)ccc1F [Compound 80]        < 4.00
4  COc1nc(C(=O)O)ccc1CN(Cc1cccc(Cl)c1Cl)C(=O)c1cc(F)cc(F)c1 [Compound 210]  4.00 to 5.00
